# MEASUREMENT DESCRIPTION: gradient 5% acetonitrile 3 min, to 50% in 2 min, to 85% in 15 min, held 3 min, 100 µL/min
# PARTICULARS: column: Zorbax Extend-C18 2.1 x 50 mm; eluents: water / acetonitrile, 0.1% formic acid
The entries below come with measured RP-LC retention time values attached.
RECORDED ENDPOINT: RP-LC retention time

1) Cc1cccc(N2C(=O)CN(CCc3ccc(F)cc3)[C@H]3CS(=O)(=O)C[C@H]32)c1 :: 839 s
2) COc1cccc(-c2ccc(=O)n(CCc3nc(-c4cccc(F)c4)no3)n2)c1 :: 970 s
3) O=C(Nc1ccccc1)C1CC(=O)N(c2ccc3c(c2)CCN3C(=O)C2CCC2)C1 (centres undefined) :: 792 s
4) CCOC(=O)N1CCN(c2ncc(S(=O)(=O)c3ccccc3)c(N)n2)CC1 :: 821 s
5) CC(=O)Nc1ccc(-n2c(-c3ccc(Cl)cc3)cn3c4c(=O)n(C)c(=O)n(C)c4nc23)cc1 :: 766 s
6) COc1cccc(NS(=O)(=O)c2cc(-c3[nH]ncc3C(=O)N3CCCCC3)oc2C)c1 :: 721 s
7) COCCNC(=O)c1csc(N2CCN(c3ccc(F)cc3)CC2)n1 :: 869 s
8) O=C(NC1CCCC1)C1CCCN(S(=O)(=O)Cc2ccc(Cl)cc2)C1 (centres undefined) :: 910 s
9) CCOc1cccc(-c2noc(Cn3nc(-c4ccc(F)cc4)ccc3=O)n2)c1 :: 1060 s
10) COc1ccc(CN(C)Cc2cc(=O)n3ccc(C)cc3n2)cc1 :: 608 s
11) Cc1nn(-c2nc(CC(=O)Nc3nc(-c4ccccc4)cs3)cs2)c(C)c1Cl :: 1270 s
12) Cn1ccc2cc(S(=O)(=O)N3CCC(C(=O)NCc4ccccn4)CC3)ccc21 :: 641 s
13) Cc1cnc(C2CC2)n1C1CCN(S(=O)(=O)c2ccc(C#N)cc2)C1 (centres undefined) :: 647 s
14) CCOCCCNCc1ccc(-c2cccc(Cl)c2)o1 :: 687 s
15) CCN1C(=O)COc2ccc(-c3noc(-c4cc(OC)c(OC)c(OC)c4)n3)cc21 :: 1060 s
16) CCC(=O)N1CCc2c(C(=O)N3CCN(c4ccccc4F)CC3)cccc21 :: 872 s
17) Cc1nn(-c2ccc(Nc3ccc(NC(=O)c4ccccc4F)cc3)nn2)c(C)c1C :: 802 s
18) Cn1c(=O)c(N2CCN(C(=O)c3cccc(F)c3)CC2)nc2ccccc21 :: 864 s
19) CC(C)CCNC(=O)CCCn1c(=O)c2cccn2c2ccccc21 :: 859 s
